Tested on: SKBR3-P
Assay: area under growth-rate inhibition curve (AUC GRI) (dimensionless (GR-based AUC)); higher = less growth inhibition
Settings: exposure time: 72 h; concentrations: 0.1, 1, 10 uM
Item-by-item account of area under growth-rate inhibition curve

Look over these answered cases.
Field request: area under growth-rate inhibition curve | item: CCCc1c2oc(C(=O)O)cc(=O)c2cc2c(=O)cc(C(=O)O)n(CC)c12 [Nedocromil]
1.02

Another molecule: C=CCN1CC[C@]23c4c5ccc(O)c4O[C@H]2C(=O)CC[C@@]3(O)[C@H]1C5.[Cl-].[H+] [Naloxone HCl]
1.03

Another molecule: C=CC[N+]1(C2CC3C4CCC5CC(O)C(N6CCOCC6)CC5(C)C4CCC3(C)C2OC(C)=O)CCCC1.[Br-] (stereo not given) [Rocuronium Bromide]
1.03

Another molecule: CCC(=O)O[C@@H](OP(=O)(CCCCc1ccccc1)CC(=O)N1C[C@H](C2CCCCC2)C[C@H]1C(=O)[O-])C(C)C.[Na+] (stereo not given in full) [Fosinopril Sodium]
1.01

New cases:
Field request: area under growth-rate inhibition curve | item: CCCC1O[C@@H]2C[C@H]3[C@@H]4CCC5=CC(=O)C=C[C@]5(C)[C@H]4[C@@H](O)C[C@]3(C)[C@]2(C(=O)CO)O1 (stereo not given in full) [Budesonide]
0.912

Another molecule: CC(=O)[C@@]1(O)CC[C@H]2[C@@H]3CCC4=CC(=O)CC[C@]4(C)[C@H]3CC[C@@]21C [17-Hydroxyprogesterone]
1

Another molecule: C=CCN1CC(C(=O)N(CCCN(C)C)C(=O)NCC)CC2c3cccc4[nH]cc(c34)CC21 (stereo not given) [Cabergoline]
1.03

Another molecule: CC(C)C(=O)Oc1ccc(CO)cc1[C@H](CCN(C(C)C)C(C)C)c1ccccc1.O=C(O)/C=C/C(=O)O [Fesoterodine Fumarate]
0.973

Another molecule: CCN(CC)CC(=O)Nc1c(C)cccc1C [Lidocaine]
1.03

Another molecule: C[C@@]12N[C@@H](Cc3ccccc31)c1ccccc12.O=C(O)/C=C/C(=O)O [(-)-MK 801 Maleate]
1.03

Data provenance: the supplement of paper PMC9763283
